Data origin: paper PMC12389534

# Tested on: 5-HT
# Run Description: Brain 5-HT level (fluorometric)
# Assay type: in vivo, rat
# Condition Notes: AlCl3-induced AD rats

{"columns": ["Compound", "Display Unit", "elevation of 5-HT levels"],
 "data": [
  ["O=C1CN(c2ccccc2)C(=O)c2c(sc3c2CCCCC3)O1 [Compound 11]", "fold", 5.0],
  ["CCOC(=O)c1c(O)sc2c1CCCCC2 [Compound 2]", "fold", 1.7],
  ["CCOC(=O)c1c(OC(=O)CCl)sc2c1CCCCC2 [Compound 4]", "fold", 2.4]
]}

* * *

# Experimental Target: AChE (Homo sapiens, UniProt P22303)
# Construct: purchased BioVision K197-100
# Sequence (P22303 32-614): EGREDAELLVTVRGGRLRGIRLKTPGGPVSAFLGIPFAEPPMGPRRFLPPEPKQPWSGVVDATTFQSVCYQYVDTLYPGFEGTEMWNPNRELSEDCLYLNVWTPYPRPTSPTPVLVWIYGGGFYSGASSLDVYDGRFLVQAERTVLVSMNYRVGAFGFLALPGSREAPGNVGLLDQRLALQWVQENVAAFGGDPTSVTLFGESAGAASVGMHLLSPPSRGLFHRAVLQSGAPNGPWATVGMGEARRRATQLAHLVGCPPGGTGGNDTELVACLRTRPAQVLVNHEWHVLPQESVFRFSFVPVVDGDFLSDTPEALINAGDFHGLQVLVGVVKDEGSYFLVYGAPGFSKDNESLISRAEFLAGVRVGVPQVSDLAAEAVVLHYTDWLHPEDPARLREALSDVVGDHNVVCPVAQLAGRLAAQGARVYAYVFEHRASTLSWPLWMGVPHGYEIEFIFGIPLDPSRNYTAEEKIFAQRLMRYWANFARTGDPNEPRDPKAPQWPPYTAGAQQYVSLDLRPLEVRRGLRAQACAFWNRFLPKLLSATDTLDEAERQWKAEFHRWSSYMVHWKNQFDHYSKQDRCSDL
# Run Description: biochemical
# Condition Notes: colorimetric kit, 412 nm
// IC50 lookup, one value per entry

{"columns": ["Compound", "IC50 / µM"],
 "data": [
  ["CCOC(=O)c1c(O)sc2c1CCCCC2 [Compound 2]", 1.1],
  ["COc1ccc(N2CC(=O)Oc3sc4c(c3C2=O)CCCCC4)cc1 [Compound 16]", 0.76],
  ["O=C1CN(c2ccccc2)C(=O)c2c(sc3c2CCCCC3)O1 [Compound 11]", 2.67],
  ["O=C1CN(c2ccc(Cl)cc2)C(=O)c2c(sc3c2CCCCC3)O1 [Compound 12]", 10.9],
  ["CCOC(=O)c1c(OC(=O)CCl)sc2c1CCCCC2 [Compound 4]", 41.2],
  ["CCOc1ccc(N2CC(=O)Oc3sc4c(c3C2=O)CCCCC4)cc1 [Compound 14]", 0.39],
  ["O=C1CN(c2ccc(O)cc2)C(=O)c2c(sc3c2CCCCC3)O1 [Compound 15]", 1.59],
  ["N#Cc1ccc(N2CC(=O)Oc3sc4c(c3C2=O)CCCCC4)cc1 [Compound 13]", 5.04]
]}

* * *

# Test system: 5-HT
# Run Description: Brain 5-HT level (fluorometric)
# Type: in vivo, rat
# Condition Notes: AlCl3-induced AD rats
Quantity Measured: elevation of 5-HT levels (fold)

{"columns": ["Compound Structure String", "Quantity Measured", "Reported Measurement"],
 "data": [
  ["CCOc1ccc(N2CC(=O)Oc3sc4c(c3C2=O)CCCCC4)cc1", "elevation of 5-HT levels", 4.5],
  ["N#Cc1ccc(N2CC(=O)Oc3sc4c(c3C2=O)CCCCC4)cc1", "elevation of 5-HT levels", 4.1],
  ["COc1ccc(N2CC(=O)Oc3sc4c(c3C2=O)CCCCC4)cc1", "elevation of 5-HT levels", 5.9],
  ["O=C1CN(c2ccc(Cl)cc2)C(=O)c2c(sc3c2CCCCC3)O1", "elevation of 5-HT levels", 2.8],
  ["O=C1CN(c2ccc(O)cc2)C(=O)c2c(sc3c2CCCCC3)O1", "elevation of 5-HT levels", 3.7]
]}

* * *

# Tested on: TAC
# Run Description: Brain TAC (colorimetric)
# Type: in vivo, rat
# Condition Notes: AlCl3-induced AD rats
# Protocol: The brain tissues of the rats were removed and rigorously washed in isotonic saline 24 h after they were euthanized following the last behavioral test. For histological investigation, four brains per group were preserved for the whole night in 10% neutral buffered formalin. The remaining six brains were split into two sections each. […]

{"columns": ["Compound Structure String", "Display Unit", "improvement of TAC levels"],
 "data": [
  ["CCOC(=O)c1c(OC(=O)CCl)sc2c1CCCCC2", "times", 2.7],
  ["COc1ccc(N2CC(=O)Oc3sc4c(c3C2=O)CCCCC4)cc1", "times", 4.4]
]}

* * *

# System: SOD
# Run Description: Brain SOD activity (colorimetric)
# Format: in vivo, rat
# Condition Notes: brain tissue, AlCl3-induced AD rats; mean ± SE, n = 6

{"columns": ["Compound Structure String", "SOD(U/g)"],
 "data": [
  ["CCOC(=O)c1c(O)sc2c1CCCCC2", "0.68 ± 0.26 ^abc U/g"],
  ["CCOc1ccc(N2CC(=O)Oc3sc4c(c3C2=O)CCCCC4)cc1", "2.38 ± 0.78 ^abc U/g"],
  ["O=C1CN(c2ccc(Cl)cc2)C(=O)c2c(sc3c2CCCCC3)O1", "2.15 ± 0.39 ^abc U/g"],
  ["COc1ccc(N2CC(=O)Oc3sc4c(c3C2=O)CCCCC4)cc1", "2.92 ± 0.20 ^abc U/g"],
  ["O=C1CN(c2ccccc2)C(=O)c2c(sc3c2CCCCC3)O1", "2.46 ± 0.32 ^abc U/g"]
]}

* * *

# Tested on: TNF-α
# Run Description: Brain TNF-α level (ELISA)
# Format: in vivo, rat
# Condition Notes: AlCl3-induced AD rats; mean ± SE, n = 6
Quantity Measured: TNF-α (pg/g Tissue)

{"columns": ["Compound Structure String", "Reported Measurement"],
 "data": [
  ["O=C1CN(c2ccccc2)C(=O)c2c(sc3c2CCCCC3)O1", "99.23 ± 0.42 ^abc pg/g Tissue"],
  ["CCOC(=O)c1c(OC(=O)CCl)sc2c1CCCCC2", "113.6 ± 0.83 ^abc pg/g Tissue"],
  ["CCOC(=O)c1c(O)sc2c1CCCCC2", "121.4 ± 0.97 ^abc pg/g Tissue"],
  ["COc1ccc(N2CC(=O)Oc3sc4c(c3C2=O)CCCCC4)cc1", "85.17 ± 0.46 ^abc pg/g Tissue"],
  ["O=C1CN(c2ccc(O)cc2)C(=O)c2c(sc3c2CCCCC3)O1", "44.6 ± 0.6 ^abc pg/g Tissue"],
  ["CCOc1ccc(N2CC(=O)Oc3sc4c(c3C2=O)CCCCC4)cc1", "73.21 ± 0.58 ^abc pg/g Tissue"],
  ["O=C1CN(c2ccc(Cl)cc2)C(=O)c2c(sc3c2CCCCC3)O1", "65.98 ± 0.91 ^abc pg/g Tissue"],
  ["N#Cc1ccc(N2CC(=O)Oc3sc4c(c3C2=O)CCCCC4)cc1", "52.38 ± 0.59 ^abc pg/g Tissue"]
]}

* * *

// increase in quadrant residence time lookup, one value per entry
# Tested on: AlCl3-induced AD rat model
# Run Description: Morris water maze (MWM) test in AlCl3-induced AD rats
# Type: in vivo

{"columns": ["Compound", "Experimental Target", "increase in quadrant residence time, times"],
 "data": [
  ["O=C1CN(c2ccc(Cl)cc2)C(=O)c2c(sc3c2CCCCC3)O1 [Compound 12]", "AlCl3-induced AD rat model", 3.7],
  ["COc1ccc(N2CC(=O)Oc3sc4c(c3C2=O)CCCCC4)cc1 [Compound 16]", "AlCl3-induced AD rat model", 3.6],
  ["O=C1CN(c2ccccc2)C(=O)c2c(sc3c2CCCCC3)O1 [Compound 11]", "AlCl3-induced AD rat model", 3.5]
]}

* * *

# Test system: β-catenin
# Run Description: Brain β-catenin level
# Format: in vivo, rat
# Condition Notes: AlCl3-induced AD rats
// elevation of β-catenin levels lookup, one value per entry

{"columns": ["Compound Structure String", "elevation of β-catenin levels"],
 "data": [
  ["N#Cc1ccc(N2CC(=O)Oc3sc4c(c3C2=O)CCCCC4)cc1", "7.7 fold"],
  ["COc1ccc(N2CC(=O)Oc3sc4c(c3C2=O)CCCCC4)cc1", "4.6 fold"],
  ["CCOC(=O)c1c(OC(=O)CCl)sc2c1CCCCC2", "3.9 fold"]
]}

* * *

# Test system: Caspase-1
# Run Description: Caspase-1 gene expression (RT-qPCR)
# Assay type: in vivo, rat
# Set-up: concentration or dose not given beside the values
# Condition Notes: AlCl3-induced AD rats
// reduction of Caspase-1 levels lookup, one value per entry

{"columns": ["Compound Structure String", "reduction of Caspase-1 levels [%]"],
 "data": [
  ["N#Cc1ccc(N2CC(=O)Oc3sc4c(c3C2=O)CCCCC4)cc1", 59.5],
  ["CCOc1ccc(N2CC(=O)Oc3sc4c(c3C2=O)CCCCC4)cc1", 46.6],
  ["O=C1CN(c2ccc(Cl)cc2)C(=O)c2c(sc3c2CCCCC3)O1", 52.3],
  ["COc1ccc(N2CC(=O)Oc3sc4c(c3C2=O)CCCCC4)cc1", 47],
  ["O=C1CN(c2ccc(O)cc2)C(=O)c2c(sc3c2CCCCC3)O1", 69.1],
  ["O=C1CN(c2ccccc2)C(=O)c2c(sc3c2CCCCC3)O1", 37.8]
]}

* * *

// BACE1 (ng/mL) lookup, one value per entry
# System: BACE1
# Run Description: Brain BACE1 level (ELISA)
# Type: in vivo, rat
# Condition Notes: AlCl3-induced AD rats; mean ± SE, n = 6
# Experimental: The brain tissues of the rats were removed and rigorously washed in isotonic saline 24 h after they were euthanized following the last behavioral test. For histological investigation, four brains per group were preserved for the whole night in 10% neutral buffered formalin. The remaining six brains were split into two sections each. […]

{"columns": ["Compound Structure String", "BACE1 (ng/mL)"],
 "data": [
  ["CCOC(=O)c1c(OC(=O)CCl)sc2c1CCCCC2", "21.89 ± 0.27 ^abc ng/mL"],
  ["CCOC(=O)c1c(O)sc2c1CCCCC2", "23.60 ± 0.2 ^abc ng/mL"],
  ["CCOc1ccc(N2CC(=O)Oc3sc4c(c3C2=O)CCCCC4)cc1", "16.66 ± 0.38 ^abc ng/mL"]
]}
